The measurements presented in this section are drawn from patent US9206156B2.

- TESTED ON: ORL1 receptor (Homo sapiens)
- Construct: expressed in transfected cells; host or cells: CHO (recombinant CHO-ORL1 cells), membranes
- Sequence (P41146 whole entry): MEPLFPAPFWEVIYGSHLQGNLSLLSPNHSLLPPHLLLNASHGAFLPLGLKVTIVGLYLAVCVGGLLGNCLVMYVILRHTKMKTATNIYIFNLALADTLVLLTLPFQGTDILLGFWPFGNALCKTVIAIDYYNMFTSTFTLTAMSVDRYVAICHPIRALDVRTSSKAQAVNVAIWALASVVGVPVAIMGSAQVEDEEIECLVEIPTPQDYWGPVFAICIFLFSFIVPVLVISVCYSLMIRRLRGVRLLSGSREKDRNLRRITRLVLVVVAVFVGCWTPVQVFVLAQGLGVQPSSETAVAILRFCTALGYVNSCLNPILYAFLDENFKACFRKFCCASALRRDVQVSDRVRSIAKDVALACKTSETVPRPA
- ASSAY DETAILS: ORL1 receptor binding assay with 3H-nociceptin/orphanin FQ (WGA-SPA beads)
- CONDITION CONTEXT: c=1 μM test substance; 0.5 nM 3H-nociceptin/orphanin FQ; membranes of recombinant CHO-ORL1 cells
ASSAY METRIC: % Inhibition (ORL1) at 1 μM (%)

>>> endpoint_value("CN(CCN1CCC(c2ccccc2)(N(C)C)CC1)Cc1c[nH]c2ccc(Cl)cc12 [Example 182]")
95
>>> endpoint_value("CN(CCN1CCC(c2ccccc2)(N(C)C)CC1)C(=O)C1CCCc2c1[nH]c1ccc(Cl)cc21 (centres unmarked) [Example 25]")
62
>>> endpoint_value("CN(CCN1CCC(c2ccccc2)(N(C)C)CC1)Cc1cccc2[nH]ccc12 [Example 194]")
56
>>> endpoint_value("CN(CCN1CCC(c2ccccc2)(N(C)C)CC1)Cc1c[nH]c2ccccc12 [Example 187]")
87
>>> endpoint_value("CN(CCN1CCC(c2ccccc2)(N(C)C)CC1)C(=O)c1ccc2ccn(C)c2c1")
51
>>> endpoint_value("CN(CCN1CCC(c2ccccc2)(N(C)C)CC1)C(=O)Cc1c[nH]c2cc(F)ccc12")
90
>>> endpoint_value("CC(C)c1ccc2c(CN(C)CCN3CCC(c4ccccc4)(N(C)C)CC3)c[nH]c2c1")
95
>>> endpoint_value("CN(C)C1(c2cccs2)CCN(CCNCc2c[nH]c3ccc(Cl)cc23)CC1")
95
